# target or system: hTRPC5 (Homo sapiens, UniProt Q9UL62)
# Construct: expressed in transfected cells; host or cells: HEK293 TREx cells with inducible TRPC5 expression
# Sequence (Q9UL62 1-973): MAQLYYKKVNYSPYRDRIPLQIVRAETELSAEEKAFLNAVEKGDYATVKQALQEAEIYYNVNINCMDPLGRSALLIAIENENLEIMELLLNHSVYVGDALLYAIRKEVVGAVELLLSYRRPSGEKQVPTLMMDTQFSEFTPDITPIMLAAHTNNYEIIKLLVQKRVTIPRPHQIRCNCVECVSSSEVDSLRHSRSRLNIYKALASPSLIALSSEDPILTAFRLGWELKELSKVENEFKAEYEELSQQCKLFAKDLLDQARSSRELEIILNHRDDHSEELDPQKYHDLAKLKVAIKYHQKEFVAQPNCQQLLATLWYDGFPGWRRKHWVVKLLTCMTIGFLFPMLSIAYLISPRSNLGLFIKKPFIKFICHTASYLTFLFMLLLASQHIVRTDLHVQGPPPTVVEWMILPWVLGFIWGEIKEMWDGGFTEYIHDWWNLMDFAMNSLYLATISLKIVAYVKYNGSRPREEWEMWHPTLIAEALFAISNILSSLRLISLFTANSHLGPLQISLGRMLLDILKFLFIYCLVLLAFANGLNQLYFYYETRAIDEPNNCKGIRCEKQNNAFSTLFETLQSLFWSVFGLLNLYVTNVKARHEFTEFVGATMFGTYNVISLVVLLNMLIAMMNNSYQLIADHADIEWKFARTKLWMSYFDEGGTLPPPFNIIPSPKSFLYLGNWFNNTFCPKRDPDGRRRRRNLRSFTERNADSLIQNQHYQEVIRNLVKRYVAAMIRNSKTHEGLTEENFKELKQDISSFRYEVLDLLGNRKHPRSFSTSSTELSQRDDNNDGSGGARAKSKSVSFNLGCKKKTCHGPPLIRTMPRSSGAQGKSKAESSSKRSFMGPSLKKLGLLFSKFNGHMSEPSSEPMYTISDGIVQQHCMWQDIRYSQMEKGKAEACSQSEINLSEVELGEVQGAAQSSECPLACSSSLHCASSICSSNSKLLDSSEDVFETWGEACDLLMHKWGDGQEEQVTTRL
# assay procedure: Whole-cell patch clamp, block of LaCl3-activated TRPC5 inward current
# Assay type: cell-based
# settings: TRPC5-expressing HEK293 TREx cells, 80 μM LaCl3, inward current, IC50 estimated from 5 μM and 500 nM, read-out: hTRPC5 Patch La3+ Inwd (nM) (All Batches)
reported property: IC50

| smiles notation | result |
| --- | --- |
| CCCOCCc1nc2c(c(=O)n(C)c(=O)n2C)n1Cc1cccc(C#N)c1 | 2000 to 10000 nM |
| Cc1cccc(Cn2c(Oc3cccc(OC(F)(F)F)c3)nc3c2c(=O)n(C)c(=O)n3C)c1 | < 100 nM |
| CCCOCCc1nc2c(c(=O)n(C)c(=O)n2C)n1Cc1cccc(C(N)=O)c1 | 2000 to 10000 nM |
| CCOC(=O)/C=C/c1nc2c(c(=O)n(C)c(=O)n2C)n1Cc1cccc(Br)c1 | 2000 to 10000 nM |
| Cn1c(=O)c2c(nc(CC(=O)O)n2Cc2cccc(Br)c2)n(C)c1=O | 2000 to 10000 nM |
| Cn1c(=O)c2c(nc(Oc3cccc(C(F)(F)F)c3)n2Cc2ccc(Cl)cc2)n(C)c1=O | 100 to 500 nM |
| COc1cccc(Cn2c(Oc3cccc(OC(F)(F)F)c3)nc3c2c(=O)n(C)c(=O)n3C)c1 | 100 to 500 nM |
| CCCOCCc1nc2c(c(=O)n(C)c(=O)n2C)n1Cc1ccc(C(C)=O)cc1 | 2000 to 10000 nM |
| CCCC(=O)C(C)(C)Sc1nc2c(c(=O)n(C)c(=O)n2C)n1Cc1cccc(Br)c1 | < 100 nM |
| CC(=O)c1cccc(Oc2nc3c(c(=O)n(C)c(=O)n3C)n2Cc2cccc(Br)c2)c1 | 1000 to 2000 nM |
| Cn1c(=O)c2c(nc(Oc3cccc(OC(F)(F)F)c3)n2Cc2cccc(Cl)c2)n(C)c1=O | 100 to 500 nM |
| Cn1c(=O)c2c(nc(OCCCCCO)n2Cc2ccc(Cl)cc2)n(C)c1=O | 2000 to 10000 nM |
| Cn1c(=O)c2c(nc(Cc3cccc(C#N)c3)n2Cc2cccc(Br)c2)n(C)c1=O | 2000 to 10000 nM |
| CCOC(=O)CCCc1nc2c(c(=O)n(C)c(=O)n2C)n1Cc1cccc(Br)c1 | 1000 to 2000 nM |
| CN(C)CCCSc1nc2c(c(=O)n(C)c(=O)n2C)n1Cc1cccc(Br)c1 | 2000 to 10000 nM |
| Cn1c(=O)c2c(nc(COCc3ccccc3)n2Cc2cccc(Br)c2)n(C)c1=O | 2000 to 10000 nM |
| CCOC(=O)c1cccc(Oc2nc3c(c(=O)n(C)c(=O)n3C)n2Cc2cccc(Br)c2)c1 | < 100 nM |
| CCOC(=O)CCC(C)(C)c1nc2c(c(=O)n(C)c(=O)n2C)n1Cc1cccc(Br)c1 | 1000 to 2000 nM |
| CCCC(=O)c1cccc(Cc2nc3c(c(=O)n(C)c(=O)n3C)n2Cc2cccc(Br)c2)c1 | 2000 to 10000 nM |
| CCCOCCc1nc2c(c(=O)n(C)c(=O)n2C)n1Cc1cccc(Cl)c1 | 500 to 1000 nM |
| Cn1c(=O)c2c(nc(CCCO)n2Cc2cccc(Br)c2)n(C)c1=O | 2000 to 10000 nM |
| CCOc1nc2c(c(=O)n(C)c(=O)n2C)n1Cc1cccc(Cl)c1 | 2000 to 10000 nM |
| CCOCCCc1nc2c(c(=O)n(C)c(=O)n2C)n1Cc1cccc(Br)c1 | 2000 to 10000 nM |
| Cn1c(=O)c2c(nc(Oc3cccc(OC(F)(F)F)c3)n2Cc2cccc(OC(F)(F)F)c2)n(C)c1=O | 100 to 500 nM |
| CCOC(=O)Cc1nc2c(c(=O)n(C)c(=O)n2C)n1Cc1cccc(Br)c1 | 2000 to 10000 nM |

Origin of values: patent US20160145257A1
